Target: T1, human CD86-murine Ig fusion protein (human)
T1 construct: Bought (Ancell #509-820); also called hCD86-mIg
T1 chain: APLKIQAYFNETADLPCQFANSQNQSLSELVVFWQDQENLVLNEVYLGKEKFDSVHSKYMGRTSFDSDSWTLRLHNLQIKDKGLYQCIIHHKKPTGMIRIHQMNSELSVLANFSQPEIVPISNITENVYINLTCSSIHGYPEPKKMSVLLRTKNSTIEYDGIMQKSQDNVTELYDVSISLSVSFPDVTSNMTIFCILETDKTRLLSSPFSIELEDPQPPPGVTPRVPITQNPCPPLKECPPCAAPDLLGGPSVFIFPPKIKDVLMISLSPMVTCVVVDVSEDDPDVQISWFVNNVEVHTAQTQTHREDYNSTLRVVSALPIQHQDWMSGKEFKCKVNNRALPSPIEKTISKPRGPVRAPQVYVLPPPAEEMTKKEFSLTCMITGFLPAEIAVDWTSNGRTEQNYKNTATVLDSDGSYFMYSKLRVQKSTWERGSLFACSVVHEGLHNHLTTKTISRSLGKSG
Assay: SPR Biacore, hCD86-mIg captured

| binder | Binding Avidity (Relative to Orencia) |
| --- | --- |
| D3-31-IgG2 (Fc fusion) MHVAQPAVVLASSRGIASFVCEYESPGKANEIRVTVLRQADSQVTEVCAMTYMKEDELTFLDDPSCTGTFSGNQVNLTIQGLRAADTGLYICKVELMYPPPYYLGIGNGTQIYVIDPEPCPDSDERKCCVECPPCPAPPVAGPSVFLFPPKPKDTLMISRTPEVTCVVVDVSHEDPEVQFNWYVDGVEVHNAKTKPREEQFNSTFRVVSVLTVVHQDWLNGKEYKCKVSNKGLPAPIEKTISKTKGQPREPQVYTLPPSREEMTKNQVSLTCLVKGFYPSDIAVEWESNGQPENNYKTTPPMLDSDGSFFLYSKLTVDKSRWQQGNVFSCSVMHEALHNHYTQKSLSLSPG | > 40 fold |
